Overview of recorded target mRNA inhibition for various sequences
target: ANGPTL2; settings: ASO, 25 µM
After the bases stand the sugars from the 5' end (letter, count) and the backbone: PS all phosphorothioate, else s phosphorothioate and o phosphodiester by linkage. Methylation of C is not given here. l = locked nucleic acid (LNA); d = 2'-deoxy (DNA)
parameter: target mRNA inhibition (%)

construct_sequence="GCTTGCGGATGATCTC (sugars l2 d12 l2, PS)" assayed_system=ANGPTL2 parameter="target mRNA inhibition" recorded_number=70.9
construct_sequence="GCATTCCTCAGACAAATC (sugars l2 d14 l2, PS)" assayed_system=ANGPTL2 parameter="target mRNA inhibition" recorded_number=56.9
construct_sequence="AATTTACAGTTCTTTGTC (sugars l4 d10 l4, PS)" assayed_system=ANGPTL2 parameter="target mRNA inhibition" recorded_number=83.3
construct_sequence="GAACTCAGCCCAGTAGAC (sugars l1 d15 l2, PS)" assayed_system=ANGPTL2 parameter="target mRNA inhibition" recorded_number=17.5
construct_sequence="ACTTCTATTCTTGGACC (sugars l2 d13 l2, PS)" assayed_system=ANGPTL2 parameter="target mRNA inhibition" recorded_number=55.7
construct_sequence="TTGATGATGCGGTTGTAGG (sugars l1 d16 l2, PS)" assayed_system=ANGPTL2 parameter="target mRNA inhibition" recorded_number=55.9
construct_sequence="CAGGCCAACACTAACTCGG (sugars l1 d16 l2, PS)" assayed_system=ANGPTL2 parameter="target mRNA inhibition" recorded_number=57
